The reported numbers originate from PubChem BioAssay.

# ASSAY SYSTEM: Alpha-2C adrenergic receptor (Homo sapiens)
# ASSAY SUMMARY: modulators of alpha2C/GIRK thallium flux, primary screen, cell-based, HEK293 alpha2C/GIRK1/2 (AID 624);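 also: slope of fluorescence ratio to pre-addition baseline per second over 15 to 24 s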
# CONDITIONS USED: thallium flux BTC fluorescence, at 10 µM, actives lie on both sides
So basically, if slope comes in under 0.006 it's Fulfilled, and if it's 0.006 or more it's Not fulfilled.

> print(dat)
                                    compound                              assay.system          class
 1  CCOc1cccc(-c2nnc3sc(-c4cc(OC)c(OC)c(OC)c4)nn23)c1  Alpha-2C adrenergic receptor (Homo sapiens)  Not fulfilled
 2             Cc1ccc2nc(NCc3ccccc3)[nH]c2c1  Alpha-2C adrenergic receptor (Homo sapiens)      Fulfilled
 3  COc1cc2nc(N3CCN(C(=O)c4ccco4)CC3)nc(N)c2cc1OC  Alpha-2C adrenergic receptor (Homo sapiens)      Fulfilled
 4        CCn1c(SCC(=O)O)nc2sc3c(c2c1=O)CCC3  Alpha-2C adrenergic receptor (Homo sapiens)      Fulfilled
 5  CN(C)c1ccc(C2C3C(=O)N(c4ccc(C(=O)O)cc4)C(=O)C3ON2c2ccccc2)cc1 (stereo not drawn)  Alpha-2C adrenergic receptor (Homo sapiens)      Fulfilled
 6  CCN(CC)CCCN1C(=O)C(=O)/C(=C(/O)c2ccccc2)C1c1ccccn1 (stereo not drawn)  Alpha-2C adrenergic receptor (Homo sapiens)  Not fulfilled
 7       COc1ccc(C(=O)c2sc(NC(C)C)nc2N)cc1OC  Alpha-2C adrenergic receptor (Homo sapiens)      Fulfilled
 8                   CCOC(=O)c1c(C)[nH]sc1=S  Alpha-2C adrenergic receptor (Homo sapiens)  Not fulfilled
 9           COC(=O)Cn1cc(C(=O)OC)cc(Br)c1=O  Alpha-2C adrenergic receptor (Homo sapiens)      Fulfilled
10      Oc1ccc(Br)cc1-c1cc(-c2ccccc2F)[nH]n1  Alpha-2C adrenergic receptor (Homo sapiens)  Not fulfilled
11  COc1ccc(N/C(=N\c2nc(C)cc(C)n2)NC(=O)C(C)C)cc1OC  Alpha-2C adrenergic receptor (Homo sapiens)      Fulfilled
12  COc1ccc(/C(O)=C2\C(=O)C(=O)N(c3cc(C)on3)C2c2ccccc2OC)cc1 (stereo not drawn)  Alpha-2C adrenergic receptor (Homo sapiens)      Fulfilled
